This collection of values is drawn from paper PMC10720262.

binding score listing for selected binders.
target.of.assay: PfCSP full length (Plasmodium falciparum (isolate NF54), UniProt P19597)
Sequence (P19597 20-375): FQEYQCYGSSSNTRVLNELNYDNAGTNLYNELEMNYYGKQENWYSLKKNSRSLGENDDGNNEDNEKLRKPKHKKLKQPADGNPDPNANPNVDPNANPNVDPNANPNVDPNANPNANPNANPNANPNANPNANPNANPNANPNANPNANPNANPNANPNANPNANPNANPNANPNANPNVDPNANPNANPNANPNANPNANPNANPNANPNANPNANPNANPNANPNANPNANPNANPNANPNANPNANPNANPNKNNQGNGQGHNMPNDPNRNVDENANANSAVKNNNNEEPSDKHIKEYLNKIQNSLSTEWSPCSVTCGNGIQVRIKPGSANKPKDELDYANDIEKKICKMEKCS
method.summary: ELISA AUC
measured.parameter: binding score

binder	recorded.number
CL-437899 (antibody, V domains shown, peptides N-terminally acetylated and C-terminally amidated) VH: QEQLVESGGGVVQPGRSLRLSCEVSGFTFSNHGLHWVRQAPGKGLEWVAIIWYDGSNKFYAESVKGRFTISRDNSKNRMYLEMNSLRVEDSAVYYCVRAYSRSSSDYKYGMDVWGQGTTVTVSS VL: DIQMTQSPSTLSASVGDRVIITCRASQSISSWLAWYQQRPGKAPELLIYKASSLETGVPSRFSGSGSGTEFTLTISSLQPDDFATYFCQQYSSYWTFGQGTKVEIK	2.4
CL-440324 (antibody, V domains shown, peptides N-terminally acetylated and C-terminally amidated) VH: QVQLVESGGGVVQPGRSLRLSCAASGFTFRNHGLHWVRQAPGKGLEWVAIIWFDGSNKFYADSVKGRFTISRDNSKNTLYLQMNSLRAEDTAIYYCARVSSHDNGDYGDFDYWGQGTLVTVSS VL: DIQMTQSPSTLSASVGDRVTITCRASQNISNWLAWYQQKPGKAPKLLIYKASSLESGVPSRFSGSGSGTEFTLTISGLQPDDFATYYCQQYKTYWTFGQGTQVEIK	2.6
